tested.target: ScLsb3
assay.summary: SPOT peptide array binding signal intensity (averaged, normalized) (arbitrary units (background-subtracted, floor 0; scale differs between SH3 domains)); higher = stronger binding of the SH3 domain to the peptide
observed.property: SPOT peptide array binding signal intensity

The examples below pair each entry with its known result.
PPIPNAPLSPAPAVP	≤ 0
PSRRDSLSIPRAVDA	4
QLLNPNRRAPRRPLS	808
RTIRKLPLMSLSEYF	639

q: Form field: reported SPOT peptide array binding signal intensity of DLPLPDLPPEPPTEL
a: ≤ 0

q: Recorded SPOT peptide array binding signal intensity for AAAPKHAPPPVPNET , please?
a: ≤ 0

q: Form field: reported SPOT peptide array binding signal intensity of GDHPKGPPPPPPPDE
a: ≤ 0

q: // lookup SPOT peptide array binding signal intensity for EREKALPPIPFTTTL
a: ≤ 0

q: Dear colleague, I am looking for the recorded SPOT peptide array binding signal intensity of the following binder: SHRLWLYAAPKRPKT
a: 64

q: I have this binder here, ILARAILTIPRVLDK , and I need its recorded SPOT peptide array binding signal intensity.
a: 117
